target: CDK4/cyclin D3 (Homo sapiens, UniProt P11802); test: Inhibition of CDK4/Cyclin D retinoblastoma kinase activity; conditions: apparent Ki, Rb fragment substrate
Sequence (P11802 whole entry, the tested form may be a part): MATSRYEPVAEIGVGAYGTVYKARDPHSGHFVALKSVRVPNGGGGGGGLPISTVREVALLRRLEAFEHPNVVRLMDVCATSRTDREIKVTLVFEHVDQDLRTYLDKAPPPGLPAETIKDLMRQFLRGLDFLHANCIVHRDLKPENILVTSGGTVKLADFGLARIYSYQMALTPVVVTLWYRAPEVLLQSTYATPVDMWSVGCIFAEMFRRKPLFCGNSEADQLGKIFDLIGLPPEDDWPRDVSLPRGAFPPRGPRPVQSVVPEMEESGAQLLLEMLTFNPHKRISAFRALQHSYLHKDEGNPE
Sequence (P30281 1-264 partner limits assumed): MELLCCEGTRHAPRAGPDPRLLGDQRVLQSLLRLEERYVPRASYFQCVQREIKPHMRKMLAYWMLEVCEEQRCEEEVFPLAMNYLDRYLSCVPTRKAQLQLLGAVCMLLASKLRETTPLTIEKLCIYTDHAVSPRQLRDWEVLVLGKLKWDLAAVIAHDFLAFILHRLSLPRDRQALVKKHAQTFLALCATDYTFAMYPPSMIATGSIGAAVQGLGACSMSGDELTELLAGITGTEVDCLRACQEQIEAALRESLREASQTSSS
Binary label based on Ki with cut-off 0.02 µM: below gives true, not below gives false.

Past entries and their recorded results:
Enquiry: Please check: Ki for Nc1nc(Nc2ccc(S(=O)(=O)N3CCC(CCO)CC3)cc2)sc1C(=O)c1c(F)cccc1F [Example A(16)] , strictly under 0.02 µM or not?
Return: false

Enquiry: Please check: Ki for Nc1nc(Nc2ccc(S(=O)(=O)NCCCN3CCCC3=O)cc2)sc1C(=O)c1c(F)cccc1F [A(25)] , strictly under 0.02 µM or not?
Return: true

Enquiry: Please check: Ki for CC(CCCC(C)(C)O)NS(=O)(=O)c1ccc(Nc2nc(N)c(C(=O)c3c(F)cccc3F)s2)cc1 (centres unmarked) [Example A(12)] , strictly under 0.02 µM or not?
Return: true

Enquiry: Please check: Ki for C[S+]([O-])c1ccc(Nc2nc(N)c(C(=O)c3c(Cl)cccc3Cl)s2)cc1 (centres unmarked) [Z(4)] , strictly under 0.02 µM or not?
Return: false

Enquiry: Please check: Ki for Nc1nc(Nc2ccc(S(=O)(=O)N3CCNCC3)cc2)sc1C(=O)c1c(F)cccc1F [Example A(1)] , strictly under 0.02 µM or not?
Return: false

More entries:
Enquiry: Please check: Ki for NC(=O)CSc1ccc(Nc2nc(N)c(C(=O)c3c(Cl)cccc3Cl)s2)cc1 [Y(1)] , strictly under 0.02 µM or not?
Return: true

Enquiry: Please check: Ki for Nc1nc(Nc2ccc(Sc3ccncc3)cc2)sc1C(=O)c1c(Cl)cccc1Cl [W(1)] , strictly under 0.02 µM or not?
Return: false

Enquiry: Please check: Ki for Nc1nc(Nc2ccc(S(=O)(=O)NCCCCO)cc2)sc1C(=O)c1c(F)cccc1F [Example A(5)] , strictly under 0.02 µM or not?
Return: false
